target: native sphingosine kinase (human placenta SK1) (Homo sapiens); construct: from tissue; host or cells: human placenta; assay: Sphingosine kinase enzyme assay with native SK purified from human placenta; assay type: biochemical
reported.metric: Inhibition of sphingosine kinase (kind of inhibition)

# compound, system.under.test, result
records = [
    ("CCCCCCCCCCCCC/C=C/[C@@H](O)[C@H](CO)NC(C)=O", "native sphingosine kinase (human placenta SK1) (Homo sapiens)", "No inhibition"),
    ("CCCC[C@@H](C)[C@@H](OC(=O)C[C@@H](CC(=O)O)C(=O)O)[C@H](C[C@@H](C)C[C@H](O)CCCC[C@@H](O)C[C@H](O)[C@H](C)N)OC(=O)C[C@@H](CC(=O)O)C(=O)O", "native sphingosine kinase (human placenta SK1) (Homo sapiens)", "No inhibition"),
    ("CCCCCCCCCCCCCCC[C@H](O)[C@@H](N)CO (racemic) [DL-threo-dihydrosphingosine]", "native sphingosine kinase (human placenta SK1) (Homo sapiens)", "competitive inhibition"),
    ("CCCCCCCCCCCCC/C=C/[C@@H](O)[C@H](CO)[N+](C)(C)C", "native sphingosine kinase (human placenta SK1) (Homo sapiens)", "competitive inhibition"),
]

* * *

molecular target: recombinant human sphingosine kinase (Homo sapiens); construct: The full length SPHK cDNA cloned into pGEX4T2 was transformed into E. coli BL21; GST (N, cleaved yes); made in house; host or cells: E. coli BL21; test: Sphingosine kinase enzyme assay with recombinant human SK expressed in E. coli; assay type: biochemical; details: substrates at 100 μM in 0.25% Triton X-100, relative to sphingosine
Sequence (Q9NYA1 whole entry): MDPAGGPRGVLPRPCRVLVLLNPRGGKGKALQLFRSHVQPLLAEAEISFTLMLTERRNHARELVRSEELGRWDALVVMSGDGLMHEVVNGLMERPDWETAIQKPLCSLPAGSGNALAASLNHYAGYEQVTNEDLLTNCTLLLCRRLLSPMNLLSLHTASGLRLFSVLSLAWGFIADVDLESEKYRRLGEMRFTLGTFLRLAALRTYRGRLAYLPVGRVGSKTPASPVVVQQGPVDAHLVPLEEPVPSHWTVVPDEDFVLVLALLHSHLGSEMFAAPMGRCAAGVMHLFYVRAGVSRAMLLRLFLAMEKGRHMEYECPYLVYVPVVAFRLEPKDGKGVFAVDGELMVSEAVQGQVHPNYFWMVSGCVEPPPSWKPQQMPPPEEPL
reported.metric: Substrate specificity (phosphorylation by the enzyme)

# compound, result
records = [
    ("CCCCCCCCCCCCCCC[C@@H](O)[C@@H](N)CO [Dihydrosphingosine, D-erythro-dihydrosphingosine]", "greatest activity"),
    ("CCCCCCCCCCCCC/C=C/[C@@H](O)[C@@H](N)CO [Sphingosine, D-erythro-Sphingosine]", "greatest activity"),
]

* * *

target: native sphingosine kinase (human placenta SK1) (Homo sapiens); construct: from tissue; host or cells: human placenta; experiment: Sphingosine kinase enzyme assay with native SK purified from human placenta; type: biochemical; settings: bulk solution concentration
reported.metric: pKi
In plain terms, pKi is the concentration in mol/L turned into minus its base-10 logarithm.

Prompt: native sphingosine kinase (human placenta SK1) (Homo sapiens) / pKi / `CCCCCCCCCCCCC/C=C/[C@@H](O)[C@H](CO)[N+](C)(C)C` : value?
Response: 5.34

* * *

target: native sphingosine kinase (human placenta SK1) (Homo sapiens, UniProt Q9NYA1); construct: from tissue; host or cells: human placenta; assay: Sphingosine kinase enzyme assay with native SK purified from human placenta; format: biochemical; conditions: substrates at 100 μM in 0.25% Triton X-100, relative to sphingosine
Sequence (Q9NYA1 whole entry): as above
reported.metric: Substrate specificity (phosphorylation by the enzyme)

# compound, system.under.test, result
rows = [
    ("CCCCCCCCCCCCCCC[C@@H](O)[C@@H](N)CO [Dihydrosphingosine, D-erythro-dihydrosphingosine]", "native sphingosine kinase (human placenta SK1) (Homo sapiens, UniProt Q9NYA1)", "greatest activity"),
    ("CCCCCCCCCCCCC/C=C/[C@@H](O)[C@@H](N)CO", "native sphingosine kinase (human placenta SK1) (Homo sapiens, UniProt Q9NYA1)", "greatest activity"),
]

* * *

target: recombinant human sphingosine kinase (Homo sapiens); construct: The full length SPHK cDNA cloned into pGEX4T2 was transformed into E. coli BL21; GST (N, cleaved yes); made in house; host or cells: E. coli BL21; assay: Sphingosine kinase enzyme assay with recombinant human SK expressed in E. coli; format: biochemical
reported.metric: Inhibition of sphingosine kinase (kind of inhibition)

# compound, system.under.test, result
measured = [
    ("CCCCCCCCCCCCCCC[C@H](O)[C@@H](N)CO (racemic) [DL-threo-dihydrosphingosine]", "recombinant human sphingosine kinase (Homo sapiens)", "competitive inhibition"),
    ("CCCC[C@@H](C)[C@@H](OC(=O)C[C@@H](CC(=O)O)C(=O)O)[C@H](C[C@@H](C)C[C@H](O)CCCC[C@@H](O)C[C@H](O)[C@H](C)N)OC(=O)C[C@@H](CC(=O)O)C(=O)O [Fumosin B1]", "recombinant human sphingosine kinase (Homo sapiens)", "No inhibition"),
    ("CCCCCCCCCCCCC/C=C/[C@@H](O)[C@H](CO)NC(C)=O [N-acetylsphingosine]", "recombinant human sphingosine kinase (Homo sapiens)", "No inhibition"),
    ("CCCCCCCCCCCCC/C=C/[C@@H](O)[C@H](CO)[N+](C)(C)C [N,N,N-trimethylsphingosine]", "recombinant human sphingosine kinase (Homo sapiens)", "competitive inhibition"),
]
